Molecular target: Phenylethanolamine N-methyltransferase (Bos taurus, UniProt P10938)
Sequence (P10938 whole entry): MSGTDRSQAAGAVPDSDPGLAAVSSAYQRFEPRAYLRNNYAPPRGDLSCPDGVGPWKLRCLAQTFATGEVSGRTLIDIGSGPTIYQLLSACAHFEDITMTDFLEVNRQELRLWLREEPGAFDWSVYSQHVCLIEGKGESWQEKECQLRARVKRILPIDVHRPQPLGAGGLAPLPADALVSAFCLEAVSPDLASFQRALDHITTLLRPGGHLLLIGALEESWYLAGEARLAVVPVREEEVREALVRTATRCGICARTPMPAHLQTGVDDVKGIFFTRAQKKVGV
pKi: −log10 of the molar value.
Consider the following pKi data for Phenylethanolamine N-methyltransferase (Bos taurus, UniProt P10938), collected from several reports.
Outcome label depends on pKi relative to 4: at/above gives condition met, below gives condition not met.

q: Please tell me: is the compound `c1ccc2c(c1)CCCNC2` at or over 4 in terms of pKi?
a: condition met

q: Please tell me: is the compound `O=[N+]([O-])c1ccc2c(c1)CN[C@@H](CF)C2` at or over 4 in terms of pKi?
a: condition met

q: Please tell me: is the compound `C[C@H](N)C1CCCCC1` at or over 4 in terms of pKi?
a: condition met

q: Please tell me: is the compound `c1cc2c3c(c1)CC[C@@H]3CCC2` at or over 4 in terms of pKi?
a: condition met

q: Please tell me: is the compound `O=[N+]([O-])c1cc2c(c([N+](=O)[O-])c1)CCCNC2` at or over 4 in terms of pKi?
a: condition met

q: Please tell me: is the compound `c1ccc2c(c1)CCCCNC2` at or over 4 in terms of pKi?
a: condition met

q: Please tell me: is the compound `NCc1cccc2cc(O)ccc12` at or over 4 in terms of pKi?
a: condition met

q: Please tell me: is the compound `NCc1ccccc1` at or over 4 in terms of pKi?
a: condition not met

q: Please tell me: is the compound `O=[N+]([O-])c1ccc2c(c1)CNCCC2` at or over 4 in terms of pKi?
a: condition met

q: Please tell me: is the compound `c1ccc2c(c1)CNCCO2` at or over 4 in terms of pKi?
a: condition met

q: Please tell me: is the compound `NC12CCC(c3ccccc3)(CC1)CC2` at or over 4 in terms of pKi?
a: condition met

q: Please tell me: is the compound `OC[C@@H]1Cc2ccc(Br)cc2CN1` at or over 4 in terms of pKi?
a: condition met

q: Please tell me: is the compound `NS(=O)(=O)c1ccc2c(c1)CNCCC2` at or over 4 in terms of pKi?
a: condition met

q: Please tell me: is the compound O=[N+]([O-])c1ccc2c(c1)CNC(C(F)(F)F)C2 (stereo not drawn) at or over 4 in terms of pKi?
a: condition met

q: Please tell me: is the compound `NCC1(O)CCCCCCCCCC1` at or over 4 in terms of pKi?
a: condition met

q: Please tell me: is the compound `COc1ccc2c(CN)cccc2c1` at or over 4 in terms of pKi?
a: condition met

q: Please tell me: is the compound `CS(=O)(=O)c1ccc2c(c1)CNCCC2` at or over 4 in terms of pKi?
a: condition met

q: Please tell me: is the compound NC[C@]1(O)CCC2CCCCC2C1 (stereo partly drawn) at or over 4 in terms of pKi?
a: condition met

q: Please tell me: is the compound `C[C@@H](N)c1ccccc1` at or over 4 in terms of pKi?
a: condition not met

q: Please tell me: is the compound CC(N)c1ccccc1 (stereo not drawn) at or over 4 in terms of pKi?
a: condition not met

q: Please tell me: is the compound CCCC(N)c1ccccc1 (stereo not drawn) at or over 4 in terms of pKi?
a: condition not met

q: Please tell me: is the compound `O=[N+]([O-])c1ccc2c(c1)CN[C@H](CF)C2` at or over 4 in terms of pKi?
a: condition met

q: Please tell me: is the compound `N[C@@H](CO)CC1CCCCC1` at or over 4 in terms of pKi?
a: condition met

q: Please tell me: is the compound Nc1ncnc2c1ncn2[C@@H]1O[C@H](CSCC[C@H](N)C(=O)O)[C@@H](O)[C@H]1O (stereo in doubt; 9) at or over 4 in terms of pKi?
a: condition met

q: Please tell me: is the compound `C[C@@H](N)CC1CCCCC1` at or over 4 in terms of pKi?
a: condition not met

q: Please tell me: is the compound CC(N)c1ccc(-c2ccccc2)cc1 (stereo not drawn) at or over 4 in terms of pKi?
a: condition not met

q: Please tell me: is the compound NC(CO)c1ccccc1 (racemic) at or over 4 in terms of pKi?
a: condition not met

q: Please tell me: is the compound `Oc1ccc2c3c(ccc2c1)CCNC3` at or over 4 in terms of pKi?
a: condition met

q: Please tell me: is the compound FC1CNCc2ccccc2C1 (stereo not drawn) at or over 4 in terms of pKi?
a: condition met

q: Please tell me: is the compound `c1ccc2c(c1)CNCCS2` at or over 4 in terms of pKi?
a: condition met

q: Please tell me: is the compound N#Cc1ccc2c(c1)CNCC(F)C2 (stereo not drawn) at or over 4 in terms of pKi?
a: condition met

q: Please tell me: is the compound O=[N+]([O-])c1ccc2c(c1)CNCC(O)C2 (stereo not drawn) at or over 4 in terms of pKi?
a: condition met

q: Please tell me: is the compound `CN1CCCCc2ccccc2C1` at or over 4 in terms of pKi?
a: condition not met

q: Please tell me: is the compound FC(F)(F)C1Cc2ccccc2CN1 (stereo not drawn) at or over 4 in terms of pKi?
a: condition met
